TARGET_OR_TEST_SYSTEM: HLA-A3.2 (A*0301) (Homo sapiens, UniProt P04439)
PROTOCOL_DETAILS: biochemical
Assay type: binding
No end group written: not given here.
ASSAY_ENDPOINT: IC50

IQIKRRQQK [Peptide 9012.0207] | 29 nM
LLLIRFRCSK [Peptide 88.0164] | 205 nM
ITYSDETQR [Peptide 88.0429] | 2960 nM

// returns reported IC50 for input HLFTYSWYK [Peptide 76.0164]
4.9 nM

Cool, now QTCALYWFR [Peptide 88.0361]
1960 nM

EFMSFLTALK [Peptide 1587.10] ?
477 nM

----------
TARGET_OR_TEST_SYSTEM: HLA-A1 (A*0101) (Homo sapiens, UniProt P04439, A114D/A174V/A182V/D101N/D185E/E176A/E190D/L180R/Q94H/R68K/S129P/T187R/V100A/V91M/W191G)
PROTOCOL_DETAILS: biochemical
# maps each entry to its log10(IC50)
Use the decimal logarithm of IC50 (nM).

Consider the reported log10(IC50) for these molecules:
CC[C@H](C)[C@H](N)C(=O)N[C@@H](CO)C(=O)N[C@@H](CCC(=O)O)C(=O)N[C@@H](Cc1ccc(O)cc1)C(=O)N[C@@H](CCCNC(=N)N)C(=O)N[C@@H](Cc1c[nH]cn1)C(=O)N[C@@H](Cc1ccc(O)cc1)C(=O)N[C@@H](CS)C(=O)N[C@@H](Cc1ccc(O)cc1)C(=O)O [Peptide 1571.27] | 1.58
CC[C@H](C)[C@H](NC(=O)[C@@H]1CCCN1C(=O)[C@H](CC(=O)O)NC(=O)[C@@H](NC(=O)[C@H](CCC(=O)O)NC(=O)[C@@H](N)CCSC)C(C)C)C(=O)NCC(=O)N[C@@H](Cc1c[nH]cn1)C(=O)N[C@@H](CC(C)C)C(=O)N[C@@H](Cc1ccc(O)cc1)C(=O)O [Peptide 1461.06] | 2.57

Given CC(C)C[C@H](NC(=O)[C@H](CO)NC(=O)[C@@H](N)CCCNC(=N)N)C(=O)N[C@@H](Cc1ccc(O)cc1)C(=O)N[C@@H](CC(N)=O)C(=O)N[C@H](C(=O)N[C@H](C(=O)N[C@@H](C)C(=O)N[C@H](C(=O)N[C@@H](CC(C)C)C(=O)N[C@@H](Cc1ccc(O)cc1)C(=O)O)[C@@H](C)O)C(C)C)[C@@H](C)O [Peptide 1595.06] , state its recorded log10(IC50).
2.34

Same question for CC[C@H](C)[C@H](N)C(=O)N[C@H](C(=O)N[C@@H](CCC(=O)O)C(=O)N[C@@H](CCCCN)C(=O)N[C@@H](CC(N)=O)C(=O)N[C@@H](CO)C(=O)NCC(=O)N[C@@H](CC(C)C)C(=O)N[C@@H](Cc1ccc(O)cc1)C(=O)O)[C@@H](C)O [Peptide 1553.04] please.
1.76

Then what about the molecule CC[C@H](C)[C@H](NC(=O)[C@@H](NC(=O)[C@@H](NC(=O)[C@@H](N)CS)[C@@H](C)O)[C@@H](C)O)C(=O)N[C@@H](Cc1c[nH]cn1)C(=O)N[C@@H](Cc1ccc(O)cc1)C(=O)N[C@@H](CC(N)=O)C(=O)N[C@@H](Cc1ccc(O)cc1)C(=O)O [Peptide 9012.0113] ?
3.54

What about this molecule? CC(C)C[C@H](NC(=O)[C@H](CC(=O)O)NC(=O)[C@H](CCC(N)=O)NC(=O)[C@@H](N)[C@@H](C)O)C(=O)N[C@H](C(=O)N[C@@H](CCC(N)=O)C(=O)N[C@@H](CCC(=O)O)C(=O)N[C@@H](CCCCN)C(=O)N[C@@H](Cc1ccc(O)cc1)C(=O)O)C(C)C [Peptide 83.0099]
1.96
